molecular target: Integrin alpha-IIb/beta-3 (Homo sapiens, UniProt P08514+P05106); assay: Inhibition of ADP-induced platelet aggregation in human platelet-rich plasma
Sequence (P05106 27-788 limits assumed): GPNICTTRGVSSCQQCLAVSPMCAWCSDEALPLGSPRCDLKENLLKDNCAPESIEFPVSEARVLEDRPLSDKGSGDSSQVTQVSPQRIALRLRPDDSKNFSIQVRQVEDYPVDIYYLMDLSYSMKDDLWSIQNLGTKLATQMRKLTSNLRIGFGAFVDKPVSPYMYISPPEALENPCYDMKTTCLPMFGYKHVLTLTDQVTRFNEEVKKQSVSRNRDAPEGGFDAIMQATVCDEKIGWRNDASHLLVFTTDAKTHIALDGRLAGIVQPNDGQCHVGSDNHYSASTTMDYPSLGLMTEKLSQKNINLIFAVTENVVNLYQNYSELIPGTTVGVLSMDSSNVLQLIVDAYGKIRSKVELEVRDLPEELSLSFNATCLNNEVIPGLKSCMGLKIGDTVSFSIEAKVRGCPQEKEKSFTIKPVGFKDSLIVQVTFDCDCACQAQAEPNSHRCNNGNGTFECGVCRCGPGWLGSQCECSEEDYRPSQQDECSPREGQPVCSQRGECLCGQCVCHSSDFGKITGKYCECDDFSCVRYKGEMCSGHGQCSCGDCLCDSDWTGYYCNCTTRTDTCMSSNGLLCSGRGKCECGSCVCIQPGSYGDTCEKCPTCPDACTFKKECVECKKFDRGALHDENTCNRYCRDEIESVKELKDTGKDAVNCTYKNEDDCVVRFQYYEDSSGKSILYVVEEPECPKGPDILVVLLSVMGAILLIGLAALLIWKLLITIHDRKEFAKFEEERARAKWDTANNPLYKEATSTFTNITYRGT
Sequence (P08514 32-887 limits assumed): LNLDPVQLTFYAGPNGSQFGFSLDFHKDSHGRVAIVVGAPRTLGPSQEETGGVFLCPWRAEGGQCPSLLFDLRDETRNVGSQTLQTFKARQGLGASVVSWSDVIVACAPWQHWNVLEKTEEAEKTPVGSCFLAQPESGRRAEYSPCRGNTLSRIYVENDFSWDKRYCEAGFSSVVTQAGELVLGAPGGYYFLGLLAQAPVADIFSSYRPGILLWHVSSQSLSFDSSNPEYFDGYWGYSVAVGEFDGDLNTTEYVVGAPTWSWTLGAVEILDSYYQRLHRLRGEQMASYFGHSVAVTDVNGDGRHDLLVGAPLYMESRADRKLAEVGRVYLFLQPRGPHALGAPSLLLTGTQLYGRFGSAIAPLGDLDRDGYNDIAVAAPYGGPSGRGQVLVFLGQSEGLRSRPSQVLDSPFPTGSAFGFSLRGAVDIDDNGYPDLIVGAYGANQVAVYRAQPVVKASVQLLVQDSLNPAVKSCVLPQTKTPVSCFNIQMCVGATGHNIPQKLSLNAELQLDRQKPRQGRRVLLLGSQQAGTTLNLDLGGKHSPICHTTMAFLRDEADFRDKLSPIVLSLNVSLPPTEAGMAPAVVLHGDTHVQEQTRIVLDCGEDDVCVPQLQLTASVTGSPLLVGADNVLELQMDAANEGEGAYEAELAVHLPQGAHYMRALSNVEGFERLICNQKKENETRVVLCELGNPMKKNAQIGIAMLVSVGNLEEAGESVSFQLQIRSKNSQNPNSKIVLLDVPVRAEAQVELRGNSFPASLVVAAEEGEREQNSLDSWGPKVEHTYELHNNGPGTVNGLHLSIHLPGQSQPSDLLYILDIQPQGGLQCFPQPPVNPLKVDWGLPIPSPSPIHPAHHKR
Sequence (P08514 891-1039 limits assumed): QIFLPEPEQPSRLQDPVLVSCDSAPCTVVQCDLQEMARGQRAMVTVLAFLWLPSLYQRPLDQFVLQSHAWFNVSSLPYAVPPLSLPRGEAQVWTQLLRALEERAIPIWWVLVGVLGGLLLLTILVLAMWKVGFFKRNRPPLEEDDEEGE
*1 amine or outer side, *2 acyl side, *3 side chain or, on linkers, in order; H or OH if unused. Where a SMILES comes first, the peptide text is derived from it. Bridges are numbered along the chain shown (N, C = ends). [ ]: non-standard residue; d: D form. Cys(O)(CH2CO) = O=C([C@H](C[S+]([O-])CC(=O)[*:3])N[*:1])[*:2]
Please use the following IC50 ranges when assigning a class: low = under 0.5 µM, moderate = from 0.5 µM up to 3 µM, high = 3 µM and over

COMPOUND	ASSAY TARGET	CLASS NAME
N=C(N)NCCC[C@@H]1NC(=O)[C@H](Cc2c[nH]c3ccccc23)NC(=O)CSC[C@@H](C(=O)O)NC(=O)[C@H](CC(=O)O)NC(=O)CNC1=O	Integrin alpha-IIb/beta-3 (Homo sapiens, UniProt P08514+P05106)	low
NC(N)=NCCC[C@H](N)C(=O)NCC(=O)N[C@@H](CC(=O)O)C(=O)N[C@@H](Cc1ccccc1)C(=O)O (H-RGDF-OH)	Integrin alpha-IIb/beta-3 (Homo sapiens, UniProt P08514+P05106)	high
N=C(N)NCCC[C@@H]1NC(=O)[C@H](CCC(=O)O)NC(=O)C[S+]([O-])C[C@@H](C(=O)O)NC(=O)[C@H](CC(=O)O)NC(=O)CNC1=O (some centres undefined)	Integrin alpha-IIb/beta-3 (Homo sapiens, UniProt P08514+P05106)	moderate
CC(C)[C@@H]1NC(=O)CSC[C@@H](C(=O)O)NC(=O)[C@H](CC(=O)O)NC(=O)CNC(=O)[C@H](CCCNC(=N)N)NC1=O	Integrin alpha-IIb/beta-3 (Homo sapiens, UniProt P08514+P05106)	low
N=C(N)NCCC[C@@H]1NC(=O)[C@@H](Cc2ccccc2)NC(=O)CSC[C@@H](C(=O)O)NC(=O)[C@H](CC(=O)O)NC(=O)CNC1=O	Integrin alpha-IIb/beta-3 (Homo sapiens, UniProt P08514+P05106)	high
CC[C@@H](C)[C@H]1NC(=O)CSC[C@@H](C(=O)O)NC(=O)[C@H](CC(=O)O)NC(=O)CNC(=O)[C@H](CCCN=C(N)N)NC1=O	Integrin alpha-IIb/beta-3 (Homo sapiens, UniProt P08514+P05106)	high
CC(C)C[C@H](NC(=O)[C@H](CC(=O)O)NC(=O)CNC(=O)[C@H](CCCNC(=N)N)NC(=O)CN)C(=O)O (H-GRGDL-OH)	Integrin alpha-IIb/beta-3 (Homo sapiens, UniProt P08514+P05106)	high
N=C(N)NCCC[C@@H]1NC(=O)[C@H](CCCCN)NC(=O)C[S+]([O-])C[C@@H](C(=O)O)NC(=O)[C@H](CC(=O)O)NC(=O)CNC1=O (some centres undefined) (KRGD[Cys(O)(CH2CO)]-OH; lactam N-5)	Integrin alpha-IIb/beta-3 (Homo sapiens, UniProt P08514+P05106)	moderate
N=C(N)NCCC[C@@H]1NC(=O)[C@H](Cc2ccc(O)cc2)NC(=O)C[S+]([O-])C[C@@H](C(N)=O)NC(=O)[C@H](CC(=O)O)NC(=O)CNC1=O (some centres undefined) (YRGD[Cys(O)(CH2CO)]-NH2; lactam N-5)	Integrin alpha-IIb/beta-3 (Homo sapiens, UniProt P08514+P05106)	low
N=C(N)NCCC[C@@H]1NC(=O)CNC(=O)C(c2ccc(C(F)(F)F)cc2)SC[C@@H](C(=O)O)NC(=O)[C@H](CC(=O)O)NC(=O)CNC1=O (some centres undefined)	Integrin alpha-IIb/beta-3 (Homo sapiens, UniProt P08514+P05106)	moderate
N=C(N)NCCC[C@@H]1NC(=O)[C@H](CC(N)=O)NC(=O)C[S+]([O-])C[C@@H](C(=O)O)NC(=O)[C@H](CC(=O)O)NC(=O)CNC1=O (some centres undefined)	Integrin alpha-IIb/beta-3 (Homo sapiens, UniProt P08514+P05106)	low
N=C(N)NCCC[C@@H]1NC(=O)[C@H](Cc2ccccc2)NC(=O)C[S+]([O-])C[C@@H](C(=O)O)NC(=O)[C@H](CC(=O)O)NC(=O)CNC1=O (some centres undefined)	Integrin alpha-IIb/beta-3 (Homo sapiens, UniProt P08514+P05106)	moderate
CC(C)C[C@@H]1NC(=O)CSC[C@@H](C(=O)O)NC(=O)[C@H](CC(=O)O)NC(=O)CNC(=O)[C@H](CCCNC(=N)N)NC1=O	Integrin alpha-IIb/beta-3 (Homo sapiens, UniProt P08514+P05106)	low

Reference for the values: BindingDB's records for doi:10.1021/jm00089a014
